system: HepG2; assay: cytotoxicity call (relative viability < 0.9); conditions: 10 µM
About 3,300 (8.5%) of roughly 39,000 compounds were called active. The entries come from a sample that favours actives as a whole.
Respond using exactly one of the listed classes: yes (active), no (inactive)

Query string: // outcome(item) with item = `C[C@@H]1CN([C@H](C)CO)S(=O)(=O)c2ccc(C#CCN(C)C)cc2O[C@H]1CN(C)S(=O)(=O)c1cccc(F)c1`
Result string: no

Query string: # outcome recorded in this test, key = `COc1ccc(S(=O)(=O)Nc2ccc3c(c2)C(=O)N([C@H](C)CO)C[C@@H](C)[C@H](CN(C)Cc2ccc(Cl)c(Cl)c2)OCCCC[C@H](C)O3)cc1`
Result string: yes

Query string: Kindly provide the recorded test outcome for the following compound: `Cc1noc(C)c1S(=O)(=O)N(C)C[C@H]1Oc2ccc(NC(=O)c3ccncc3)cc2C(=O)N([C@H](C)CO)C[C@@H]1C`
Result string: no

Query string: Tell me the assay call for `COc1ccc(CN(C)C[C@H]2OCCCC[C@H](C)Oc3ccc(NS(=O)(=O)c4ccc(OC)cc4)cc3C(=O)N([C@@H](C)CO)C[C@@H]2C)cc1` please.
Result string: no

Query string: Recorded test outcome, item `Cc1ccc2nc(SCc3ccc4ccccc4c3)[nH]c2c1`
Result string: yes

Query string: What did this assay record as the result for `COc1ccc(S(=O)(=O)Nc2ccc3c(c2)C(=O)N([C@H](C)CO)C[C@H](C)[C@@H](CN(C)Cc2ccc(Cl)c(Cl)c2)OCCCC[C@@H](C)O3)cc1` ?
Result string: yes

Query string: Please share the test call associated with `Cc1ccc(-c2cc(C(F)(F)F)nn2-c2ccc(S(N)(=O)=O)cc2)cc1` .
Result string: yes

Query string: Recorded test call requested for `COc1ccc(CN(C)C[C@H]2OCCCC[C@@H](C)Oc3ccc(NS(=O)(=O)c4ccc(OC)cc4)cc3C(=O)N([C@@H](C)CO)C[C@@H]2C)cc1`
Result string: no

Query string: Which outcome did this test record for the compound `COc1ccc(CN(C)C[C@@H]2OCCCC[C@@H](C)Oc3ccc(NS(=O)(=O)c4ccc(OC)cc4)cc3C(=O)N([C@@H](C)CO)C[C@H]2C)cc1` ?
Result string: no

Query string: What outcome does the record of this test show for `Cc1ccc2nc(SCc3c(C)c(C)cc(C)c3C)[nH]c2c1` ?
Result string: no

Query string: # fetch the recorded call for `COc1ccc(S(=O)(=O)Nc2ccc3c(c2)C(=O)N([C@@H](C)CO)C[C@H](C)[C@@H](CN(C)Cc2ccc(Cl)c(Cl)c2)OCCCC[C@@H](C)O3)cc1` here
Result string: yes

Query string: Query: recorded result category for `CC(C)NC(=O)Nc1ccc2c(c1)CC(=O)N([C@H](C)CO)C[C@H](C)[C@H](CN(C)S(=O)(=O)c1ccc(F)cc1)O2` in this test
Result string: no

Query string: What call does the record list for `COc1ccc(CN(C)C[C@@H]2OCCCC[C@@H](C)Oc3ccc(NS(=O)(=O)c4ccc(OC)cc4)cc3C(=O)N([C@H](C)CO)C[C@@H]2C)cc1` ?
Result string: no

Query string: I would be grateful if you could indicate the recorded call for `COc1ccc(CN(C)C[C@H]2OCCCC[C@H](C)Oc3ccc(NS(=O)(=O)c4ccc(OC)cc4)cc3C(=O)N([C@H](C)CO)C[C@H]2C)cc1` .
Result string: no

====

system: HepG2; experiment: cytotoxicity call (relative viability < 0.9); details: 10 µM
Hit rate of the full screen: of about 39,000 compounds, about 3,300 (8.5%) were called active. The sample as a whole holds a higher share of actives than the screen did.
# valid calls are true (1) for active, false (0) for inactive; nothing else

Query string: In this assay, the call recorded for `C[C@H](O)C#Cc1cnc2c(c1)C(=O)N([C@@H](C)CO)C[C@@H](C)[C@H](CN(C)C(=O)Nc1ccc(C(F)(F)F)cc1)O2` was what?
Result string: false (0)

Query string: Which outcome was assigned to `C[C@H]1CN([C@@H](C)CO)C(=O)c2cc(C#Cc3ccccc3F)cnc2O[C@@H]1CN(C)C(=O)Cc1cccnc1` in this test?
Result string: false (0)

Query string: For `C[C@@H]1CN([C@H](C)CO)C(=O)c2cccc(NS(=O)(=O)c3cccs3)c2O[C@@H]1CN(C)S(=O)(=O)c1cn(C)cn1` , what call appears in the results of this test?
Result string: false (0)

Query string: Each compound tested received a call. Report the one for `C[C@H]1CN([C@@H](C)CO)C(=O)c2cccc(NS(=O)(=O)c3cccs3)c2O[C@H]1CN(C)S(=O)(=O)c1cn(C)cn1` .
Result string: false (0)

Query string: Recorded call for `C[C@H](CO)N1C[C@H](C)[C@H](CN(C)S(C)(=O)=O)Oc2c(NS(=O)(=O)c3cn(C)cn3)cccc2C1=O` ?
Result string: true (1)

Query string: Write down the call the test reported for this compound. Item: `C[C@@H]1CN([C@H](C)CO)C(=O)c2cccc(NS(=O)(=O)c3cn(C)cn3)c2O[C@@H]1CN(C)S(C)(=O)=O`
Result string: false (0)

Query string: Fill in: this test's call for `Cc1ccc(S(=O)(=O)N(C)C[C@@H]2Oc3c(NS(=O)(=O)c4cccs4)cccc3C(=O)N([C@@H](C)CO)C[C@H]2C)cc1` is ___
Result string: false (0)

====

system: HepG2; test: cytotoxicity call (relative viability < 0.9); settings: 10 µM
Out of some 39,000 compounds screened, about 3,300 (8.5%) were called active. This is one part of a sample in which actives are shown more often than they occur.
Your reply should match one of these outcome classes. YES (active), NO (inactive)

Query string: For `C[C@H]1CN([C@@H](C)CO)C(=O)c2cccc(NC(=O)c3ccc(-c4nccs4)cc3)c2O[C@H]1CN(C)S(=O)(=O)c1ccc(Cl)cc1` , what call appears in the results of this test?
Result string: NO

Query string: Name the outcome recorded for `COc1ccc(S(=O)(=O)N(C)C[C@@H]2Oc3ccc(NC(=O)Nc4ccc(Cl)c(Cl)c4)cc3CC(=O)N([C@@H](C)CO)C[C@@H]2C)cc1Cl` in the assay.
Result string: YES

Query string: // outcome(item) with item = `C[C@@H]1CN([C@@H](C)CO)C(=O)c2cc(NC(=O)CCCCCC(=O)Nc3ccccc3N)ccc2O[C@H]1CN(C)C(=O)Nc1cccc2ccccc12`
Result string: NO

Query string: # fetch the recorded call for `COc1ccc(S(=O)(=O)N(C)C[C@@H]2Oc3ccc(NC(=O)Nc4cccc5c4CCCC5)cc3CC(=O)N([C@@H](C)CO)C[C@@H]2C)cc1Cl` here
Result string: NO

Query string: For `C[C@H]1CN([C@@H](C)CO)C(=O)c2cc(NC(=O)Cc3ccccc3)ccc2O[C@@H]1CN(C)S(=O)(=O)c1cn(C)cn1` , which call appears in the assay record?
Result string: NO

Query string: Look up the recorded call for `C[C@@H]1CN([C@@H](C)CO)C(=O)c2cc(NC(=O)Nc3ccc(C(F)(F)F)cc3)ccc2O[C@@H](C)CCCCO[C@@H]1CN(C)S(=O)(=O)c1cn(C)cn1` in this test.
Result string: NO

Query string: What outcome does the record of this test show for `CN(C)CCC=C1c2ccccc2COc2ccccc21.Cl` ?
Result string: YES

Query string: What call does the record list for `O=C(C1CC1)N1CCCN(C(=O)C2CC2)CC1` ?
Result string: NO

Query string: Could you check what this test reported for `C=CCN([C@@H](Cc1ccccc1)[C@@H](O)c1cn(CCCNC(=O)C(=O)NC)nn1)S(=O)(=O)c1ccccc1[N+](=O)[O-]` ?
Result string: NO

Query string: Just curious, what result did `CN(C)CN1C(=O)c2ccccc2C1=O` get here?
Result string: NO

Query string: What did the test return for `C[C@H]1CN([C@@H](C)CO)C(=O)Cc2cc(NC(=O)Nc3ccc(C(F)(F)F)cc3)ccc2O[C@@H]1CN(C)C(=O)Nc1ccc2c(c1)OCO2` ?
Result string: NO

Query string: How was `COc1ccc(S(=O)(=O)N(C)C[C@@H]2Oc3ccc(NC(=O)NC(C)C)cc3CC(=O)N([C@H](C)CO)C[C@@H]2C)cc1` classified in this test?
Result string: NO

Query string: How did this test come out for `CCc1nc2ccc(C(=O)NCCCN3CCCC3=O)cn2c1N(CC)C(=O)NCCc1ccccc1` ?
Result string: NO

Query string: Which outcome was entered for the molecule `CC(=O)OCC(=O)O[C@@H]1[C@H]2[C@@H](OC(=O)c3ccccc3)[C@@H](C)C[C@]2(O)[C@H](OC(C)=O)[C@@]2(C)[C@H](OC(C)=O)[C@]1(OC(C)=O)C[C@H]1C(=O)C(C)(C)C[C@@H]12` in this test?
Result string: NO

Query string: What call does the record list for `C[C@@H]1CN([C@H](C)CO)C(=O)c2cc(NC(=O)Nc3ccc(C(F)(F)F)cc3)ccc2O[C@@H](C)CCCCO[C@H]1CN(C)C` ?
Result string: NO

Query string: Entry `C[C@@H]1CN([C@H](C)CO)C(=O)CCCn2cc(nn2)CO[C@H]1CN(C)S(=O)(=O)c1ccc(Cl)cc1` : call = ?
Result string: NO

Query string: So what was the verdict on `CNCCC=C1c2ccccc2CCc2ccccc21.Cl` in this test?
Result string: YES

Query string: Status in this test for `Cc1c(CN2CCC(Nc3ncnc4sc(CC(F)(F)F)cc34)CC2)ccc2c1cc(C#N)n2Cc1cn[nH]c1` ?
Result string: YES

Query string: Check the results log: what was the call for `C[C@@H]1CN([C@@H](C)CO)C(=O)c2cc(NC(=O)Nc3ccc(C(F)(F)F)cc3)ccc2O[C@@H](C)CCCCO[C@H]1CN(C)S(=O)(=O)c1cn(C)cn1` ?
Result string: NO

Query string: Hi, sorry to bother you, what did the test record for `C[C@@H]1CCCCO[C@@H](CN(C)C(=O)CCC(F)(F)F)[C@@H](C)CN([C@H](C)CO)C(=O)c2cc(NS(=O)(=O)c3ccc(F)cc3)ccc2O1` ?
Result string: NO

Query string: Would you mind telling me which call this test gave `CCCNC(=O)Nc1ccc2c(c1)OC[C@H](C)N(C(=O)C1CCOCC1)C[C@@H](C)[C@@H](OC)CN(C)C2=O` ?
Result string: NO

Query string: Tell me the recorded outcome of this test for `COc1ccc(NC(=O)N(C)C[C@@H]2OCCCC[C@@H](C)Oc3ccc(NC(=O)Nc4c(C)noc4C)cc3C(=O)N([C@@H](C)CO)C[C@H]2C)cc1` .
Result string: NO

Query string: Per the records of this test, what outcome belongs to `CCC[C@H](NC(=O)[C@@H]1[C@H]2CCC[C@H]2CN1C(=O)[C@@H](NC(=O)[C@@H](NC(=O)c1cnccn1)C1CCCCC1)C(C)(C)C)C(=O)C(=O)NC1CC1` ?
Result string: YES

Query string: Dear all, I need the recorded test outcome for `C[C@H]1CCCCO[C@@H](CN(C)C(=O)c2ccccc2)[C@@H](C)CN([C@@H](C)CO)C(=O)c2cc(NC(=O)Nc3ccc(C(F)(F)F)cc3)ccc2O1` , thank you.
Result string: NO

Query string: What did this assay record as the result for `C[C@@H]1CN([C@@H](C)CO)C(=O)Cc2cc(NC(=O)Nc3ccc(C(F)(F)F)cc3)ccc2O[C@H]1CN(C)C(=O)Nc1ccc2c(c1)OCO2` ?
Result string: NO

Query string: I'd appreciate the recorded outcome for `CN(C)CCC=C1c2ccccc2C=Cc2ccccc21.Cl` from this test.
Result string: YES

Query string: Record lookup: outcome of this test for `C[C@@H]1CN([C@H](C)CO)C(=O)Cc2cc(NC(=O)Nc3ccc(C(F)(F)F)cc3)ccc2O[C@@H]1CN(C)C(=O)Nc1ccc2c(c1)OCO2` ?
Result string: YES

Query string: Hi team, can someone confirm the assay call for `C[C@@H]1CN([C@@H](C)CO)C(=O)c2cc(-c3ccc(C(=O)N(C)C)cc3)cnc2O[C@@H]1CN(C)C(=O)CN(C)C` ?
Result string: NO

Sourced from the antibiotic and cytotoxicity screens of Wong et al. (2023)
